// provenance: the array DNA melting data of Ke et al. (doi:10.1101/2024.01.08.574731)

- Experimental Protocol: melting temperature; fluorescence melt of hairpins on a sequencing array, two-state fit, raised by 9.35 °C to match UV melts
- Run Conditions: sodium 0.088 M
Quantity Measured: Tm

// below: answered sequences
Query: Looking for the measured Tm of CGGAACGGAAACGTCCG (((.(((....)))))) , can you help?
Response: 47.8 °C

Query: Given the entry GATCGGGATCCGATC ((((((...)))))) , report its measured Tm.
Response: 55.6 °C

Query: GET /values?readout=Tm&item= GCTACCGAAAGGTGCAGC ((((((....)))..)))
Response: 43.5 °C

Query: // lookup Tm for GATCAGGGTGCTGATC ((((((....))))))
Response: 51.5 °C

Query: What value of Tm has been reported for the following sequence? GGTCGCCGAAAGGCACC (((.(((....))))))
Response: 55.3 °C

Query: // returns reported Tm for input GCGAAAGCTCGC ((((....))))
Response: 56.8 °C

Query: Request the reported Tm associated with GGTACGGGAAACCGCACC (((.(((....))).)))
Response: 50.5 °C

Query: Would you kindly share the measured Tm for GGGCACGGAAACGTACCC (((.(((....))).))) ?
Response: 51.4 °C

Query: For GTGCTGGGAAACTAGCGC (.(((.(....).))).) , what is its reported Tm?
Response: 45.5 °C

Query: Form field: reported Tm of GCTTGGCGAAAGCTGAGC (((..((....))..)))
Response: 56.2 °C

Further cases:
Query: // Tm lookup, key: GCATCTCGAAAGAGCTGC (((.(((....))).)))
Response: 48.2 °C

Query: Can you share its Tm? I mean this sequence: GATCCGACAGCGGATC ((((((....))))))
Response: 54 °C

Query: Quick check: Tm of GCGGAGACCCGC ((((....)))) ?
Response: 52.8 °C

Query: // lookup Tm for GACACTGCGAAAGCAGTC (((..(((....))))))
Response: 31.4 °C

Query: # Tm lookup, item GATCCCTTCGGGGATC ((((((....))))))
Response: 65.2 °C

* * *

- Experimental Protocol: melting temperature; fluorescence melt of hairpins on a sequencing array, two-state fit, raised by 9.35 °C to match UV melts
- Run Conditions: sodium 0.088 M
# key: entry, value: Tm
API: value field is a number in °C; no unit string.

Query: What measured Tm goes with GTGAACCGAAAGGTCAC (((.(((....)))))) ?
Response: 54.9

Query: Consider the sequence shown here: GGTTTTCGAAAGAATACC (((.(((....))).))) What is its recorded Tm?
Response: 42.3

Query: # get_value(readout='Tm', item= GTTGACGGAAACGTTAAC (((.(((....))).))) )
Response: 47.1

Query: Looking for the measured Tm of TGGGTGAAAACCCA (((((....))))) , can you help?
Response: 53.5

Query: Fill in the blank: the reported Tm of GAGCGCGAAAGCGCACTC ((((((....)))..))) is ____.
Response: 60.4

Query: Any idea what its Tm is? The sequence is GACGCGGCGAAAGCCGTC (((..(((....))))))
Response: 32.6
